Target: BACE-2 (Homo sapiens, UniProt Q9Y5Z0)
Construct: Recombinant BACE-2 (extracellular domain, expressed in baculovirus and purified using standard methods)
Sequence (Q9Y5Z0 63-473 limits assumed): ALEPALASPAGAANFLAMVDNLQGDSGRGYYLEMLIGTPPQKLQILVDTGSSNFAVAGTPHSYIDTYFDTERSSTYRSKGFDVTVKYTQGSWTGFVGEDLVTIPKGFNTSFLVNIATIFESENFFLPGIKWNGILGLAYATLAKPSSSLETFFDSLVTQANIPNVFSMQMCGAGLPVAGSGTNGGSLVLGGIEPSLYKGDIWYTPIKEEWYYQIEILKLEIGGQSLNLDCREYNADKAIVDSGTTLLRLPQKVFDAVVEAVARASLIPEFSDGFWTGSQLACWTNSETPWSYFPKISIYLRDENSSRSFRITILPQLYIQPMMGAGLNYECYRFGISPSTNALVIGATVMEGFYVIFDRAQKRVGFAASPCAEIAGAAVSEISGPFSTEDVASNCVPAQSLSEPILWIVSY
Assay: assay for inhibition of BACE-2
pIC50: −log10 of the molar value.
Property name: pIC50

I = NC1=N[C@@](c2cc(NC(=O)c3ccc(Br)cn3)ccc2F)(C(F)F)CCOC1
II = NC1=N[C@@](c2cc(NC(=O)c3cnc(C(F)F)cn3)ccc2F)(C(F)F)COC1
III = COc1ccc(C(=O)Nc2ccc(F)c([C@]3(C)CO[C@@](C)(C(F)(F)F)C(N)=N3)c2)nc1
Q) In ascending order of recorded pIC50, list the compounds from the set above. I would appreciate it if you listed the labels in the requested order.
A) II, I, III
